Please find below IC50 data on Serine/threonine-protein kinase pim-2 (Homo sapiens, UniProt Q9P1W9) compiled from the literature.
OBSERVABLE: IC50 (nM)

// worked examples, IC50 included
>>> numeric_result("C[C@H]1CN(c2ccncc2NC(=O)c2ccc(F)c(-c3c(F)cc(C4(O)COC4)cc3F)n2)C[C@@H](N)[C@@H]1O")
0.67
>>> numeric_result("C[C@@H]1C[C@H](N)C[C@H](c2ccncc2NC(=O)c2ccc(F)c(-c3c(F)cc(-c4ccnnc4)cc3F)n2)C1")
28.4
>>> numeric_result("COCc1cc(F)c(-c2nc(C(=O)Nc3cnccc3N3C[C@@H](N)[C@H](O)[C@@H](C)C3)ccc2F)c(F)c1")
1.35
>>> numeric_result("C[C@@H]1C[C@H](N)C[C@H](c2ccncc2NC(=O)c2ccc(F)c(-c3c(F)cc(C4(O)CC4)cc3F)n2)C1")
2.03
>>> numeric_result("C[C@@H]1C[C@H](N)C[C@H](c2ccncc2NC(=O)c2ccc(F)c(-c3c(F)cc(C4(F)COC4)cc3F)n2)C1")
4.54
>>> numeric_result("C[C@@H]1C[C@H](N)C[C@H](c2ccncc2NC(=O)c2ccc(F)c(-c3c(F)cc(OC4CCOCC4)cc3F)n2)C1")
2.04

[I] CN1CCCN(c2cncc(-c3cccc(/C=C/C(=O)NS(C)(=O)=O)c3)n2)CC1
[II] CC1(C)C[C@H](N)C[C@H](c2ccncc2NC(=O)c2csc(-c3c(F)cccc3F)n2)C1
Task: Which value of IC50 is smaller, the one for I or the one for II ? The response must carry the label of the picked entry.
Output: II

---

We begin with IC50 values for Serine/threonine-protein kinase pim-2 (Homo sapiens), as collected from the published literature.
OBSERVABLE: IC50 (µM)

Consider the following illustrative entries.
>>> numeric_result("C[C@H]1CN(c2ccncc2NC(=O)c2ccc(F)c(-c3c(F)cc(O[C@@H]4CCCOC4)cc3F)n2)C[C@@H](N)[C@@H]1O")
0.00064
>>> numeric_result("NCCNc1cncc(-c2cccc(/C=C/C(=O)O)c2)n1")
0.14
>>> numeric_result("C[C@@H]1C[C@H](N)C[C@H](c2ccncc2NC(=O)c2ccc(F)c(-c3c(F)cc([C@@H]4CCOC4)cc3F)n2)C1")
0.00166

[I] NC1CCN(c2cncc(-c3cccc(/C=C/C(=O)O)c3)n2)CC1
[II] C[C@H]1CN(c2ccncc2NC(=O)c2ccc(F)c(-c3c(F)cc(C4(O)CCC4)cc3F)n2)C[C@@H](N)[C@@H]1O
Task: // task: argmin of IC50 over [ I , II ] When you have decided, please share the label of that item.
Output: II
(II: 0.00071 µM, I: 0.115 µM)

[I] O=C1NC(=O)/C(=C/c2ccc(C(F)(F)F)cc2)S1
[II] COC1(c2cc(F)c(-c3nc(C(=O)Nc4cnccc4N4C[C@@H](N)[C@H](O)[C@@H](C)C4)ccc3F)c(F)c2)COC1
[III] O=C(O)/C=C/c1cccc(-c2cncc(N3CCCNCC3)n2)c1
[IV] Nc1sc(-c2c(F)cccc2F)nc1C(=O)Nc1cnccc1[C@@H]1CC[C@H](O)[C@H](N)C1 (stereo in doubt)
Task: Hey, can you sort those compounds up there by IC50, smallest first? Please list each label once, in the requested order.
Output: II, IV, I, III

---

Before we begin, note that these IC50 values for Serine/threonine-protein kinase pim-2 (Homo sapiens, UniProt Q9P1W9) originate from several publications.
OBSERVABLE: IC50 (nM)

>>> numeric_result("C[C@@H]1C[C@H](N)C[C@H](c2ccncc2NC(=O)c2cccc(-c3c(F)cc(C4CCOCC4)cc3F)n2)C1")
3.49
>>> numeric_result("O=C(O)/C=C/c1cccc(-c2cncc(N[C@H]3CC[C@H](O)CC3)n2)c1")
265
>>> numeric_result("C[C@@H]1C[C@H](N)C[C@H](c2ccncc2NC(=O)c2ccc(F)c(-c3c(F)cc4c(c3F)OCC[C@@]4(C)O)n2)C1")
1.67
>>> numeric_result("CN(C)C1CCN(c2cncc(-c3cccc(/C=C/C(=O)O)c3)n2)CC1")
72
>>> numeric_result("Nc1ccc(-c2ccc(F)cc2F)nc1-c1cc2c(N3CCC[C@H](N)C3)ccnc2cn1")
151

[a] C[C@@H]1C[C@H](N)C[C@H](c2ccncc2NC(=O)c2ccc(F)c(-c3c(F)cc(OCC4CCOCC4)cc3F)n2)C1
[b] CCOCc1cc(F)c(-c2nc(C(=O)Nc3cnccc3[C@H]3C[C@@H](N)[C@@H](O)[C@@H](C)C3)ccc2F)c(F)c1
[c] Cc1cc(F)c(-c2nc(C(=O)Nc3cnccc3[C@@H]3C[C@H](C)C[C@H](N)C3)c(N)cc2F)c(F)c1
Task: Order by IC50, ascending. List each label, following the requested order.
Output: c, a, b

[1] Nc1ccc(-c2ccc(F)cc2)nc1-c1cc2c(N3CCC[C@H](N)C3)ccnc2cn1
[2] C[C@@H]1C[C@H](N)C[C@H](c2ccncc2NC(=O)c2ccc(F)c(-c3c(F)cc(C4(C#N)CCOCC4)cc3F)n2)C1
Task: I'm curious whether 1 or 2 has the smaller IC50 number. Which is it? Answer = label.
Output: 2
(2: 2.83 nM, 1: 102 nM)

---

Here we gather IC50 data for Serine/threonine-protein kinase pim-2 (Homo sapiens, UniProt Q9P1W9) reported by several publications.

>>> result("CN(CCN1CCOCC1)c1nn2c(-c3cccc(OC(F)(F)F)c3)nnc2c2c1N(C)CCO2")
"100 to 1000 nM"
>>> result("COc1ccccc1Nc1nc2c(-c3nnc[nH]3)cccc2c2cnccc12")
"< 1000 nM"
>>> result("Clc1cccc(Nc2nc3c(-c4nc[nH]n4)cccc3c3ccncc23)c1")
"< 500 nM"
>>> result("Fc1cccc(F)c1Nc1nc2c(-c3nnc[nH]3)cccc2c2cnccc12")
"< 100 nM"

# ---- query molecule ----
Task: Could you please provide reported IC50 for N[C@@H]1CN(c2ccncc2NC(=O)c2csc(-c3c(F)cccc3F)n2)CC[C@H]1O ? Thanks!
Output: 11 nM

---

Below are IC50 values for Serine/threonine-protein kinase pim-2 (Homo sapiens) collected from several publications.
OBSERVABLE: IC50 (nM)

Here are 3 compounds together with their reported answers.
>>> numeric_result("C[C@H]1CN(c2ccncc2NC(=O)c2ccc(F)c(-c3c(F)cc(C4(F)CCOCC4)cc3F)n2)C[C@@H](N)[C@@H]1O")
0.39
>>> numeric_result("Cc1cc(F)c(-c2nc(C(=O)Nc3cnccc3[C@H]3C[C@@H](N)[C@H](O)[C@@H](C)C3)c(N)cc2F)c(F)c1")
2.01
>>> numeric_result("CC[C@@H]1C[C@H](N)CN(c2ccncc2NC(=O)c2csc(-c3c(F)cccc3F)n2)C1")
3

[P] C[C@H]1C[C@@H](c2ccncc2NC(=O)c2nc(-c3c(F)cc(C(C)(C)O)cc3F)c(F)cc2N)C[C@@H](N)[C@@H]1O
[Q] C[C@H]1C[C@@H](c2ccncc2NC(=O)c2ccc(F)c(-c3c(F)cc(CC(C)(C)O)cc3F)n2)C[C@@H](N)[C@@H]1O
Task: Form: Entry with minimum IC50 (choose one): P / Q I would appreciate it if you answered with the label of your choice.
Output: P
(P: 1.3 nM, Q: 2.2 nM)

[a] C[C@H]1CN(c2ccncc2NC(=O)c2ccc(F)c(-c3c(F)cc(OC4COC4)cc3F)n2)C[C@@H](N)[C@@H]1O
[b] C[C@H]1C[C@@H](c2ccncc2NC(=O)c2ccc(F)c(-c3c(F)cc(C4CCS(=O)(=O)CC4)cc3F)n2)C[C@@H](N)[C@H]1O
Task: Between the two listed entries a and b , which has its IC50 at the higher number? Write down the label of the entry you select.
Output: b

[1] CN(C)C1CCN(c2cncc(-c3cccc(/C=C/C(=O)O)c3)n2)C1 (centres unmarked)
[2] C[C@@H]1CN(c2ccncc2NC(=O)c2csc(-c3c(F)cccc3F)n2)C[C@@H](N)[C@H]1O
[3] C[C@H]1C[C@@H](c2ccncc2NC(=O)c2ccc(F)c(-c3c(F)cc(OC4CCOCC4)cc3F)n2)C[C@@H](N)[C@@H]1O
[4] CC(C)[C@@H]1C[C@H](N)C[C@H](c2ccncc2NC(=O)c2ccc(F)c(-c3c(F)cc(C4(O)CCC4)cc3F)n2)C1
[5] C[C@@H]1C[C@H](N)C[C@H](c2ccncc2NC(=O)c2ccc(F)c(-c3c(F)ccc(OC[C@@H](O)CO)c3F)n2)C1
Task: Put the compounds in ascending order of IC50. Rank the items, then write their labels in that order.
Output: 4, 3, 5, 2, 1

[P] Nc1ccc(-c2cccs2)nc1-c1cc2c(N3CCC[C@H](N)C3)ccnc2cn1
[Q] C[C@@H]1C[C@H](N)C[C@H](c2ccncc2NC(=O)c2ccc(F)c(-c3c(F)cc(OC4COC4)cc3F)n2)C1
Task: Determine, for P and Q , which has the greater value of IC50. Which one? Tell me its label.
Output: P
